Taken from PubChem BioAssay.

Assay: AML differentiation inducers, ER-HoxA9 marrow cells – cell-based, GFP/MAC1 double positive, flow cytometry, validation set, primary screen (AID 588685);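 also: compound exposure lasts four days before antibody staining and flow analysis; 0% = DMSO wells and 100% = 5 µM fulvestrant positive control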
Settings: stronger effect = higher value, normalized: vehicle 0, fulvestrant 100
The entries below are paired with their reported differentiation response.
Quick note: give the figure in %, leave out the unit.

The following molecules have reported results that may help.
Cc1ccc2occ(C(=O)c3ccco3)c(=O)c2c1 | 0
Cc1ccc(Cl)c(Nc2ccccc2C(=O)O)c1Cl | -4.99
Cc1ccccc1NC(=O)C1(C)Cc2ccccc2C(=O)O1 (stereo unspecified) | 18.4
COc1ccc(S(=O)(=O)NCc2ccco2)c2ccccc12 | 2.4

Input line: // returns reported differentiation response for input `COc1ccc(/C=C\c2cc(OC)c(OC)cc2CC[N+](C)(C)C)cc1OC`
Output line: -0.8

Input line: // returns reported differentiation response for input CC(C)CC1c2[nH]c3ccccc3c2CCN1C(=O)CCC(=O)N(C)C (stereo unspecified)
Output line: -6.55
